- tested-system: Glutamate receptor ionotropic, AMPA (Rattus norvegicus, UniProt P19490+P19491+P19492+P19493)
- assay-comment: Ability to block kainate-induced 45 [Ca2+] influx through functional assay of Ionotropic glutamate receptor AMPA activity in rat cerebellar granule cells
quantity-name: pIC50
// pIC50 here means minus log10 of the molar concentration (mol/L)

Known results for compounds:
> print(dat)
                               query.smiles  obs.value
1  Cc1cccc(/C=C/c2nc3ccc(F)cc3c(=O)n2-c2ccccc2Cl)n1       7.44
2  O=c1c2ccccc2nc(/C=C/c2ccccn2)n1-c1ccccc1Br       6.99
3  CC(=O)OCc1cccc(/C=C/c2nc3ccc(F)cc3c(=O)n2-c2ccccc2Cl)n1       7.35

If you can, please state the reported pIC50 value of O=c1c2ccccc2nc(/C=C/c2ccccn2)n1-c1ccccc1Cl .
6.36

Follow-up item: Cc1ccccc1-n1c(/C=C/c2ccccn2)nc2ccccc2c1=O
6.34

====

- tested-system: Glutamate receptor ionotropic, AMPA (Rattus norvegicus, UniProt P19490+P19491+P19492+P19493)
- assay-comment: Ability to block kainate-induced 45 [Ca2+] influx through functional assay of Ionotropic glutamate receptor AMPA activity in rat cerebellar granule cells
quantity-name: IC50

> print(dat)
                                   compound  obs.value
1  NCc1cccc(/C=C/c2nc3ccc(F)cc3c(=O)n2-c2ccccc2Cl)n1     340 nM

If you can, please state the reported IC50 value of O=c1c2cc(F)ccc2nc(/C=C/c2cccc(CO)n2)n1-c1ccccc1Cl .
58 nM

Follow-up item: O=c1c2cc(F)ccc2nc(/C=C/c2ccccn2)n1-c1ccccc1Br
65 nM

Follow-up item: Cc1ccccc1-n1c(/C=C/c2ccccn2)nc2cc(Cl)ccc2c1=O
> 3000 nM

Follow-up item: CCN(CC)Cc1cccc(/C=C/c2nc3ccc(F)cc3c(=O)n2-c2ccccc2Cl)n1 (stereo in doubt; 38)
74 nM

Follow-up item: O=c1c2cc(F)ccc2nc(/C=C/c2cccc(CF)n2)n1-c1ccccc1Cl
56 nM

Follow-up item: Cc1cccc(C)c1-n1c(/C=C/c2ccccn2)nc2ccccc2c1=O
> 1000 nM

Follow-up item: O=c1c2ccccc2nc(/C=C/c2ccccn2)n1-c1ccccc1F
116 nM

Follow-up item: CNCc1cccc(/C=C/c2nc3ccc(F)cc3c(=O)n2-c2ccccc2Cl)n1
103 nM

Follow-up item: Cc1ccccc1-n1c(/C=C/c2ccccn2)nc2ccc(Br)cc2c1=O
162 nM

====

Each entry below carries its reported pIC50.
- tested-system: Glutamate receptor ionotropic, AMPA (Rattus norvegicus, UniProt P19490+P19491+P19492+P19493)
- assay-comment: Ability to block kainate-induced 45 [Ca2+] influx through functional assay of Ionotropic glutamate receptor AMPA activity in rat cerebellar granule cells
// pIC50 here means minus log10 of the molar concentration (mol/L)

If you can, please state the reported pIC50 value of CCNCc1cccc(/C=C/c2nc3ccc(F)cc3c(=O)n2-c2ccccc2Cl)n1 .
7.09

Follow-up item: COc1cccc(/C=C/c2nc3ccc(F)cc3c(=O)n2-c2ccccc2Cl)n1
7.51

Follow-up item: COc1ccccc1-n1c(/C=C/c2ccccn2)nc2ccccc2c1=O
5.96

Follow-up item: COC(=O)c1cccc(/C=C/c2nc3ccc(F)cc3c(=O)n2-c2ccccc2Cl)n1
6.40

Follow-up item: N#Cc1cccc(/C=C/c2nc3ccc(F)cc3c(=O)n2-c2ccccc2Cl)n1
6.61

Follow-up item: O=c1c2cc(F)ccc2nc(/C=C/c2ccccn2)n1-c1ccccc1F
6.74

Follow-up item: CC(C)NCc1cccc(/C=C/c2nc3ccc(F)cc3c(=O)n2-c2ccccc2Cl)n1
7.23

====

- tested-system: Glutamate receptor ionotropic, AMPA (Rattus norvegicus, UniProt P19490+P19491+P19492+P19493)
- assay-comment: Ability to block kainate-induced 45 [Ca2+] influx through functional assay of Ionotropic glutamate receptor AMPA activity in rat cerebellar granule cells
Returns: string. Value is yes (1) if measured IC50 is below 200 nM, and no (0) if it is greater than or equal to it.

Example cases with answers are listed next.
> print(dat)
                               query.smiles    label
1  Cc1ccccc1-n1c(/C=C/c2ccccn2)nc2c(Cl)cccc2c1=O   no (0)
2  CN(C)CCN(C)Cc1cccc(/C=C/c2nc3ccc(F)cc3c(=O)n2-c2ccccc2Cl)n1  yes (1)
3  Cc1ccccc1-n1c(/C=C/c2ccccn2)nc2ccc(F)cc2c1=O   no (0)
4  CCOCc1cccc(/C=C/c2nc3ccc(F)cc3c(=O)n2-c2ccccc2Cl)n1  yes (1)
5  CN(C)Cc1cccc(/C=C/c2nc3ccc(F)cc3c(=O)n2-c2ccccc2Cl)n1  yes (1)
6  Cc1ccc2nc(/C=C/c3ccccn3)n(-c3ccccc3C)c(=O)c2c1   no (0)

Check if IC50 falls below 200 nM for O=c1c2cc(F)ccc2nc(/C=C/c2cccc(N3CCCC3)n2)n1-c1ccccc1Cl .
yes (1)

====

- tested-system: Glutamate receptor ionotropic, AMPA (Rattus norvegicus, UniProt P19490+P19491+P19492+P19493)
- assay-comment: Evaluated in patch clamp electrophysiology study for its selectively evoked Ionotropic glutamate receptor AMPA mediated inward currents.
quantity-name: IC50 (nM)
All answers are understood in nM, so give the number only.

If you can, please state the reported IC50 value of CCN(CC)Cc1cccc(/C=C/c2nc3ccc(F)cc3c(=O)n2-c2ccccc2Cl)n1 (stereo in doubt; 38) .
25

====

- tested-system: Glutamate receptor ionotropic, AMPA (Rattus norvegicus, UniProt P19490+P19491+P19492+P19493)
- assay-comment: Ability to block kainate-induced 45 [Ca2+] influx through functional assay of Ionotropic glutamate receptor AMPA activity in rat cerebellar granule cells
quantity-name: pIC50
// pIC50 here means minus log10 of the molar concentration (mol/L)

> print(dat)
                               query.smiles  obs.value
1  O=Cc1cccc(/C=C/c2nc3ccc(F)cc3c(=O)n2-c2ccccc2Cl)n1       7.01
2  O=c1c2cc(F)ccc2nc(/C=C/c2ccccn2)n1-c1ccccc1Cl       7.02
3  O=c1c2ccccc2nc(/C=C/c2ccccn2)n1-c1ccccc1C(F)(F)F       6.84
4  Cc1ccccc1-n1c(/C=C/c2ccccn2)nc2ccc(Cl)cc2c1=O       6.91

The record that follows has no pIC50 shown yet.
If you can, please state the reported pIC50 value of COCc1cccc(/C=C/c2nc3ccc(F)cc3c(=O)n2-c2ccccc2Cl)n1 .
7.38

====

- tested-system: Glutamate receptor ionotropic, AMPA (Rattus norvegicus, UniProt P19490+P19491+P19492+P19493)
- assay-comment: Ability to block kainate-induced 45 [Ca2+] influx through functional assay of Ionotropic glutamate receptor AMPA activity in rat cerebellar granule cells.
quantity-name: IC50 (nM)
All answers are understood in nM, so give the number only.

> print(dat)
                                   compound  quantity.name  obs.value
1  CCN(CC)Cc1cccc(/C=C/c2nc3ccc(F)cc3c(=O)n2-c2ccccc2Cl)n1 (stereo in doubt; (+)-38)           IC50         36

The record that follows has no IC50 shown yet.
If you can, please state the reported IC50 value of CCN(CC)Cc1cccc(/C=C/c2nc3ccc(F)cc3c(=O)n2-c2ccccc2Cl)n1 (stereo in doubt; (-)-38) .
0.1

====

Each entry below carries its reported pIC50.
- tested-system: Glutamate receptor ionotropic, AMPA (Rattus norvegicus, UniProt P19490+P19491+P19492+P19493)
- assay-comment: Ability to block kainate-induced 45 [Ca2+] influx through functional assay of Ionotropic glutamate receptor AMPA activity in rat cerebellar granule cells
pIC50: −log10 of the molar value.

> print(dat)
                               query.smiles  obs.value
1  O=c1c2ccccc2nc(/C=C/c2ccccn2)n1-c1c(Cl)cccc1Cl     < 6.00
2  Cc1ccccc1-n1c(/C=C/c2ccccn2)nc2c(Cl)cc(Cl)cc2c1=O     < 6.00

The record that follows has no pIC50 shown yet.
If you can, please state the reported pIC50 value of COc1cccc2c(=O)n(-c3ccccc3C)c(/C=C/c3ccccn3)nc12 .
< 6.00

====

- tested-system: Glutamate receptor ionotropic, AMPA (Rattus norvegicus, UniProt P19490+P19491+P19492+P19493)
- assay-comment: Ability to block kainate-induced 45 [Ca2+] influx through functional assay of Ionotropic glutamate receptor AMPA activity in rat cerebellar granule cells
pIC50: −log10 of the molar value.
Each entry below carries its reported pIC50.

> print(dat)
                               query.smiles  quantity.name  obs.value
1  O=c1c2cc(F)ccc2nc(/C=C/c2cccc(N3CCCCC3)n2)n1-c1ccccc1Cl          pIC50     < 6.52

If you can, please state the reported pIC50 value of O=C(O)c1cccc(/C=C/c2nc3ccc(F)cc3c(=O)n2-c2ccccc2Cl)n1 .
< 6.00

Follow-up item: O=c1c2cc(F)ccc2nc(/C=C/c2ccccn2)n1-c1c(F)cccc1F
< 6.52

Follow-up item: COc1cc2nc(/C=C/c3ccccn3)n(-c3ccccc3C)c(=O)c2cc1OC
< 6.00

Follow-up item: O=c1c2ccccc2nc(/C=C/c2ccccn2)n1-c1ccccc1
< 6.00
